Source: patent US20260174875A1

Target: human amylin receptor (hAMYR3) (Homo sapiens, UniProt O60896+P30988)
Construct: host or cells: BHK cells (Hollex-1 line expressing hCTR(a) and CRE-Luc), further transfected with human RAMP3
Sequence (P30988 25-474): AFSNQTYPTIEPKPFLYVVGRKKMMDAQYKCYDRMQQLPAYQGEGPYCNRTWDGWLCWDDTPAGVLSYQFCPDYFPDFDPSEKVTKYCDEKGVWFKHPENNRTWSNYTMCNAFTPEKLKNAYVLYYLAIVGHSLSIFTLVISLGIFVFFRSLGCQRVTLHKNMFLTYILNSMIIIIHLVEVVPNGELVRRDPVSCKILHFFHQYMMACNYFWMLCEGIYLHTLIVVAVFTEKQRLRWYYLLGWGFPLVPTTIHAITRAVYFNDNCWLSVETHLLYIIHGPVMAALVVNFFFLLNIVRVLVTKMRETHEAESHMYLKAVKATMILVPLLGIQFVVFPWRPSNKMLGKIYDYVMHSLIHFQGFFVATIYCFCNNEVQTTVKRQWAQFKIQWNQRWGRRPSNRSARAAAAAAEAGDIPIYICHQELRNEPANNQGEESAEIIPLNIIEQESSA
Sequence (O60896 24-148): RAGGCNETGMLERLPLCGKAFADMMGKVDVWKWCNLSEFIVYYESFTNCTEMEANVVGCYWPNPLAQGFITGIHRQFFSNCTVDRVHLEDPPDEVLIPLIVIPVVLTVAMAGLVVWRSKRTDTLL
Experiment: Amylin receptor assay, method B (CRE-luciferase reporter, BHK cells)
Type: cell-based
Settings: method B, absence of HSA; read-out: hAMYR3 Potency, no HSA, EC50
pEC50: −log10 of the molar value. Numbered stars: 1 amine (or outer) side, 2 acyl side, 3 side chain; on linkers, the order of the positions; unused ones are H or OH. Square brackets hold non-standard residues; d marks the D form. Side chains are listed from the residue outwards. * marks the point of attachment. C20 diacid = O=C(O)CCCCCCCCCCCCCCCCCCC(=O)*; γGlu = O=C(O)[C@H](CCC(=O)[*:2])N[*:1]; AEEA = NCCOCCOCC(=O)O; Aib = CC(C)(N)C(=O)O

{"substance": "Y[Aib]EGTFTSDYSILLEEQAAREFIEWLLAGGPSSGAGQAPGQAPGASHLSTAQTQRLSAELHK([AEEA-AEEA-γGlu-C20 diacid])LATLPRTETGSGSP-NH2 [Compound 115]", "target of assay": "human amylin receptor (hAMYR3) (Homo sapiens, UniProt O60896+P30988)", "pEC50": 11.15}

====

EC50 by entry:
Molecular target: human GLP-1 receptor (hGLP-1R) (Homo sapiens, UniProt P43220)
Construct: expressed in transfected cells
Sequence (P43220 24-463): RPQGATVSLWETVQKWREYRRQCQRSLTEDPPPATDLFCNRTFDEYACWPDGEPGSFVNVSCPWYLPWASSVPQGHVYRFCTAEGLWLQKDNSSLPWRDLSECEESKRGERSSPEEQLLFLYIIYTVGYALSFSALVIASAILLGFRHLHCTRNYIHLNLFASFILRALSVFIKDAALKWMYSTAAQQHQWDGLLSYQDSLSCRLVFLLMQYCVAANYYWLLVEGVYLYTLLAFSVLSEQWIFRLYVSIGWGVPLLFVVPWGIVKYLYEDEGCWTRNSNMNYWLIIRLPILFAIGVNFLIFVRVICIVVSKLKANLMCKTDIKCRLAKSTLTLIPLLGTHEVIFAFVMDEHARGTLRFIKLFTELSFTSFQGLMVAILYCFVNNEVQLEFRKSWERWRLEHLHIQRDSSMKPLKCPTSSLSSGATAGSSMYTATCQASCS
Test: GLP-1 receptor assay, method A (CRE-luciferase reporter, BHK cells)
Assay type: cell-based
Settings: method A, absence of HSA; read-out: hGLP-1R Potency, no HSA, EC50
Numbered stars: 1 amine (or outer) side, 2 acyl side, 3 side chain; on linkers, the order of the positions; unused ones are H or OH. Square brackets hold non-standard residues; d marks the D form. Side chains are listed from the residue outwards. * marks the point of attachment. C18 diacid = O=C(O)CCCCCCCCCCCCCCCCC(=O)*; γGlu = O=C(O)[C@H](CCC(=O)[*:2])N[*:1]; AEEA = NCCOCCOCC(=O)O; Aib = CC(C)(N)C(=O)O

{"substance": "H[Aib]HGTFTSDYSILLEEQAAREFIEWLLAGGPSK([AEEA-AEEA-γGlu-C18 diacid])GEASQLSTAALGRLSAELHQLATLPRTETGSGSP-NH2 [Compound 64]", "EC50, pM": 3.71}
{"substance": "H[Aib]HGTFTSDYSILLEEQAAREFIEWLLAGGPSSGALQAPGQAPLASHLSTAQTARLSAELHK([AEEA-AEEA-γGlu-C18 diacid])LATLPRTETGSGSP-NH2 [Compound 108]", "EC50, pM": 4.57}
{"substance": "Y[Aib]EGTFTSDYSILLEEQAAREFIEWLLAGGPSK([AEEA-AEEA-γGlu-C18 diacid])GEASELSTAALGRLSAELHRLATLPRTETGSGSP-NH2 [Compound 19]", "EC50, pM": 57.9}
{"substance": "Y[Aib]EGTFTSDYSILLEEQAAREFIEWLLAGGPSSGAGQAPGQAPGASHLSTAALARLSAELHK([AEEA-AEEA-γGlu-C18 diacid])LATLPRTETGSGSP-NH2 [Compound 114]", "EC50, pM": 43.3}
{"substance": "H[Aib]HGTFTSDYSILLEEQAAREFIEWLLAGGPSRGEASHLSTAQTQRLSAELHK([AEEA-AEEA-γGlu-C18 diacid])LATLPRTETGSGSP-NH2 [Compound 69]", "EC50, pM": 3.45}

====

Molecular target: human amylin receptor (hAMYR3) (Homo sapiens, UniProt O60896+P30988)
Construct: host or cells: BHK cells (Hollex-1 line expressing hCTR(a) and CRE-Luc), further transfected with human RAMP3
Assay: Amylin receptor assay, method A (CRE-luciferase reporter, BHK cells)
Format: cell-based
Conditions: method A, absence of HSA; read-out: hAMYR3 Potency, no HSA, EC50
Description: To assess how the activation of the receptors is potentially influenced by the presence of human serum albumin (HSA), the in vitro assays were performed in the absence of HSA and presence of 1% (w/v) HSA. It is thus possible to measure hAMYR3 activity using a CRE-luciferase reporter gene introduced into Baby Hamster Kidney (BHK) cells co-expressing the hAMYR3. […] The plate was incubated over night at 37° C. in 5% CO2. […] Luminescence was detected on a luminescence plate reader e.g., a Synergy 2 (BioTek).
Numbered stars: 1 amine (or outer) side, 2 acyl side, 3 side chain; on linkers, the order of the positions; unused ones are H or OH. Square brackets hold non-standard residues; d marks the D form. Side chains are listed from the residue outwards. * marks the point of attachment. C18 diacid = O=C(O)CCCCCCCCCCCCCCCCC(=O)*; γGlu = O=C(O)[C@H](CCC(=O)[*:2])N[*:1]; AEEA = NCCOCCOCC(=O)O; Aib = CC(C)(N)C(=O)O
measured attribute: EC50 (pM)

{"substance": "H[Aib]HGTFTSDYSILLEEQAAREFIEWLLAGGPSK([AEEA-AEEA-γGlu-C18 diacid])GAPPPSGGGEASHLSTAQTARLSAELHQLATLPRTETGSGSP-NH2 [compound 101]", "recorded value": 3.08}
{"substance": "Y[Aib]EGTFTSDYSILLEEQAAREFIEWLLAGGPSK([AEEA-AEEA-γGlu-C18 diacid])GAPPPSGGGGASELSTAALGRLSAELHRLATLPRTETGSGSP-NH2 [Compound 13]", "recorded value": 2.26}
{"substance": "H[Aib]HGTFTSDYSILLEEQAAREFIEWLLAGGPSSGAGQAPGQAPGASHLSTAQTQRLSAELHRLK([AEEA-AEEA-γGlu-C18 diacid])TLPRTETGSGSP-NH2 [Compound 91]", "recorded value": 2.26}

====

Target: human GLP-1 receptor (hGLP-1R) (Homo sapiens, UniProt P43220)
Construct: expressed in transfected cells
Assay: GLP-1 receptor assay, method A (CRE-luciferase reporter, BHK cells)
Format: cell-based
Conditions: hGLP-1R Potency, 1% HSA, EC50, method A, in the presence of 1% HSA
pEC50: −log10 of the molar value. Numbered stars: 1 amine (or outer) side, 2 acyl side, 3 side chain; on linkers, the order of the positions; unused ones are H or OH. Square brackets hold non-standard residues; d marks the D form. Side chains are listed from the residue outwards. * marks the point of attachment. C20 diacid = O=C(O)CCCCCCCCCCCCCCCCCCC(=O)*; C18 diacid = O=C(O)CCCCCCCCCCCCCCCCC(=O)*; γGlu = O=C(O)[C@H](CCC(=O)[*:2])N[*:1]; AEEA = NCCOCCOCC(=O)O; Aib = CC(C)(N)C(=O)O
measured attribute: pEC50

{"substance": "H[Aib]HGTFTSDYSILLEEQAAREFIEWLLAGGPSSGEASHLSTAQTQRLSAELHRLK([AEEA-AEEA-γGlu-C18 diacid])TLPRTETGSGSP-NH2 [Compound 83]", "measured attribute": "pEC50", "recorded value": 11.00}
{"substance": "H[Aib]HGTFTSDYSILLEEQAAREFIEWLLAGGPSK([AEEA-AEEA-γGlu-C18 diacid])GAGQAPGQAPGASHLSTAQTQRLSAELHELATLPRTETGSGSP-NH2 [Compound 47]", "measured attribute": "pEC50", "recorded value": 10.17}
{"substance": "H[Aib]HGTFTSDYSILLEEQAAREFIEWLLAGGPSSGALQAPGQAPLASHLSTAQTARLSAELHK([AEEA-AEEA-γGlu-C18 diacid])LATLPRTETGSGSP-NH2 [Compound 108]", "measured attribute": "pEC50", "recorded value": 10.82}
{"substance": "H[Aib]HGTFTSDYSILLEEQAAREFIEWLLAGGPSSGEASHLSTAALGRLSAELHK([AEEA-AEEA-γGlu-C18 diacid])LATLPRTETGSGSP-NH2 [Compound 88]", "measured attribute": "pEC50", "recorded value": 10.31}
{"substance": "Y[Aib]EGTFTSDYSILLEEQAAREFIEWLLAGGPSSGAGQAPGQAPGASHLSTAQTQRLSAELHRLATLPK([AEEA-AEEA-γGlu-C20 diacid])TETGSGSP-NH2 [Compound 76]", "measured attribute": "pEC50", "recorded value": 10.20}
{"substance": "H[Aib]HGTFTSDYSILLEEQAAREFIEWLLAGGPSSGALQAPGQAPGASHLSTAQTARLSAELHRLATLPK([AEEA-AEEA-γGlu-C18 diacid])TETGSGSP-NH2 [Compound 107]", "measured attribute": "pEC50", "recorded value": 10.86}
{"substance": "H[Aib]HGTFTSDYSILLEEQAAREFIEWLLAGGPSSGALAQTLAQTLASHLSTAQTQRLSAELHK([AEEA-AEEA-γGlu-C18 diacid])LATLPRTETGSGSP-NH2 [Compound 51]", "measured attribute": "pEC50", "recorded value": 10.49}
{"substance": "Y[Aib]EGTFTSDYSILLEEQAAREFIEWLLAGGPSSGEASHLSTAQTQRLSAK([AEEA-AEEA-γGlu-C18 diacid])LHRLATLPRTETGSGSP-NH2 [Compound 79]", "measured attribute": "pEC50", "recorded value": 9.77}
{"substance": "H[Aib]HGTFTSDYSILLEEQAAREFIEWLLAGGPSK([AEEA-AEEA-γGlu-C18 diacid])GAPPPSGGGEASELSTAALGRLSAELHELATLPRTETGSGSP-NH2 [Compound 15]", "measured attribute": "pEC50", "recorded value": 9.99}
{"substance": "H[Aib]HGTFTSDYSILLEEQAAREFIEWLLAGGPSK([AEEA-AEEA-γGlu-C18 diacid])GEASQLSTAALGRLSAELHRLADLPRTETGSGSP-NH2 [Compound 43]", "measured attribute": "pEC50", "recorded value": 10.38}
{"substance": "Y[Aib]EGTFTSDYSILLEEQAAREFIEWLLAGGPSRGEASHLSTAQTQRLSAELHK([AEEA-AEEA-γGlu-C20 diacid])LATLPRTETGSGSP-NH2 [Compound 94]", "measured attribute": "pEC50", "recorded value": 9.89}
